Reference source: PubChem BioAssay (NCI)

tested on: A498 renal; test: NCI-60 one-dose screen, 48 h; conditions: 10 µM
This is part of a sample that, as a whole, favours compounds with a hit. Of some 83,000 tested, about 20% had one in any assay. Activity calls are given as the source filed them. How the source made its calls: active means growth percent below 10; inactive means the rest.
Outcomes: Yes for active, No for inactive

Cc1noc2c(Cc3ccccc3)nn(CC(=O)N/N=C/c3ccc(F)cc3)c(=O)c12	Yes
O=C(CNc1nc(-c2ccccc2)cs1)Nc1ccc(Br)cc1	Yes
N#Cc1c(-c2ccc(Cl)cc2)cc(-c2ccccc2)nc1OCc1ccccc1	No
CCN1CCN(c2ccc(NC(=O)Nc3ccc(-c4cc(C(=O)NC)c5ncccc5n4)cc3)cc2C(F)(F)F)CC1	Yes
COc1ccc(C(C)=C(c2ccc(OCCCN(C)C)cc2)c2ccc(OCCCN(C)C)cc2)cc1	Yes
